experimental.target: Gal3S4S(b1-4)GlcNAc
experimental.protocol: glycan array binding signal (z-score within array); higher = stronger binding
measurement.parameters: glycan notation: IUPAC condensed, linker removed
This excerpt belongs to a sample that is enriched for the strongest signals.
readout.kind: glycan array binding signal (z-score)

[[record]]
binder = "Ovorubin (Pomacea canaliculata), J7I2T6 (protein) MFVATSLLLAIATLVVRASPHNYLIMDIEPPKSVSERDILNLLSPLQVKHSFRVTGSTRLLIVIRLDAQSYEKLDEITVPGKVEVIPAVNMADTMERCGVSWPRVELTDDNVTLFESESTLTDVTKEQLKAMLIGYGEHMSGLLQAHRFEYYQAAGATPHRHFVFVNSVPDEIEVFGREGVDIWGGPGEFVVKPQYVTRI"
observed = 9.33

[[record]]
binder = "SJA (Sophora japonica) (protein) FLGLFNSGGYSSSYQIVAVEFDTYINEWDPKTRHIGIDINSINSTKTVTWGWENGEVAIVLISYKAATETLTVSLTYPSSQTSYILSAAVDLKSILPEWVRIGF"
observed = -0.23

[[record]]
binder = "Gal 12 (Homo sapiens), Q96DT0 (protein) MSQPSGGRAPGTRIYSWSCPTVMSPGEKLDPIPDSFILQPPVFHPVVPYVTTIFGGLHAGKMVMLQGVVPLDAHRFQVDFQCGCSLCPRPDIAFHFNPRFHTTKPHVICNTLHGGRWQREARWPHLALRRGSSFLILFLFGNEEVKVSVNGQHFLHFRYRLPLSHVDTLGIFGDILVEAVGFLNINPFVEGSREYPAGHPFLLMSPRLEVPCSHALPQGLSPGQVIIVRGLVLQEPKHFTVSLRDQAAHAPVTLRASFADRTLAWISRWGQKKLISAPFLFYPQRFFEVLLLFQEGGLKLALNGQGLGATSMNQQALEQLRELRISGSVQLYCVHS"
observed = 0.103

[[record]]
binder = "SP8524D-bot-399-27-399 (Bacteroides ovatus) (protein) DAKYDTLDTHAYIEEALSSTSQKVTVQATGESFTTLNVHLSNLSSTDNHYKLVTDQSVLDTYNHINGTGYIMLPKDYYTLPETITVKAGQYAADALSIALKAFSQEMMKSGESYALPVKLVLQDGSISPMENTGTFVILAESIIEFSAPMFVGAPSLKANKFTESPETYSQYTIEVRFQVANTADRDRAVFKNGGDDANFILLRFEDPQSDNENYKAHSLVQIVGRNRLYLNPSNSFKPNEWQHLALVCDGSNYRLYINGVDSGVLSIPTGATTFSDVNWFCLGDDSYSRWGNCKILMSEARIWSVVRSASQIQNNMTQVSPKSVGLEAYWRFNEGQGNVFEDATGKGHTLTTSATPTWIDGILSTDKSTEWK"
observed = -0.075

[[record]]
binder = "CrataBL (Crataeva tapia), C0HJA4 (protein) AILTGVPYYILPSTSRAGFSPDNLRKNTSQLSCPLDLITQLRFPRRIGVPVIFTPQNSSLKVVPLSHNLNIHTCSDLWFCPESKIWTVKSSLTHGGSVVTTGGTFRSLGSWFRIERHGDSYKLVHCPRGSTPCRDVGIETVGGGGRRYLAPRDRPLAVRFTRASG"
observed = 2.38

